# Subject of test: JAK2 (JH1domain-catalytic, Y1007F,Y1008F) kinase (Homo sapiens, UniProt O60674, Y1007F/Y1008F)
# Construct: JAK2 (JH1domain-catalytic, Y1007F,Y1008F) kinase was expressed as N-terminal fusion
# Sequence (O60674 849-1124 Y1007F/Y1008F limits assumed): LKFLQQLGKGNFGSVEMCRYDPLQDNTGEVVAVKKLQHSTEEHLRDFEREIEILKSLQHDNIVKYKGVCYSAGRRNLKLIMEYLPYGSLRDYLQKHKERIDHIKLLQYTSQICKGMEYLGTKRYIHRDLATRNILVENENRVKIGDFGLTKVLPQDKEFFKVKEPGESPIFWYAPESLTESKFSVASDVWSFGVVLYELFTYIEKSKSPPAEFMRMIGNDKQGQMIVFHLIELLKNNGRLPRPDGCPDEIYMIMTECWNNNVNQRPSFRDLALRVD
# Assay comment: JAK2 JH1 Domain Binding Assay
# Condition: qPCR readout
pKd: −log10 of the molar value.

>  <Molecule>
Cn1c(Nc2cc(C(C)(C)C)n([C@@H]3CCOC3)n2)nc2ncc(Oc3cnc4[nH]cc(C#N)c4c3)cc21

>  <pKd>
6.00 to 7.30

$$$$
>  <Molecule>
Cn1cc(C2CC2)cc(Nc2nc3ncc(Oc4cnn5ccnc(O[C@@H]6CC[C@H]6O)c45)c(Cl)c3n2C)c1=O (single isomer, unassigned)

>  <pKd>
> 8.00

$$$$
>  <Molecule>
Cn1c(Nc2cc(C3CC3)cn([C@H]3C[C@H](C#N)C3)c2=O)nc2ncc(Oc3cnn4ccncc34)c(Cl)c21

>  <pKd>
> 8.00

$$$$
>  <Molecule>
CNc1cn2ncc(Oc3cnc4nc(Nc5cc(C(F)(F)F)cn([C@@H]6CCOC6)c5=O)n(C)c4c3Cl)c2cn1 (single isomer, unassigned)

>  <pKd>
7.30 to 8.00

$$$$
>  <Molecule>
Cn1c(Nc2cc(C(F)(F)F)n(C3CC4(COC4)C3)n2)nc2ncc(Oc3cnc4[nH]ccc4c3)c(C#N)c21

>  <pKd>
7.30 to 8.00

$$$$
>  <Molecule>
CNc1cn2ncc(Oc3cnc4nc(Nc5cc(C6CCN(C)CC6)cc(C(F)(F)F)c5)n(C)c4c3Cl)c2cn1

>  <pKd>
> 8.00

$$$$
>  <Molecule>
Cn1c(Nc2ccc(CN3CCCOCC3)c(C(F)(F)F)c2)nc2ncc(Oc3cnn4ccncc34)c(Cl)c21

>  <pKd>
> 8.00

$$$$
>  <Molecule>
CCn1c(C(C)(C)C)ncc(Nc2nc3ncc(Oc4cnn5ccncc45)c(Cl)c3n2C)c1=O

>  <pKd>
7.30 to 8.00

$$$$
>  <Molecule>
CNc1cn2ncc(Oc3cnc4nc(Nc5cc(C(F)(F)F)n(C6CC7(COC7)C6)n5)n(C)c4c3Cl)c2cn1

>  <pKd>
6.00 to 7.30

$$$$
>  <Molecule>
COCCn1cc(C2CC2)cc(Nc2nc3ncc(Oc4cnn5ccncc45)c(OC)c3n2C)c1=O

>  <pKd>
> 8.00

$$$$
>  <Molecule>
CNc1nccn2ncc(Oc3cnc4nc(Nc5cc(OC[C@@H]6CCCN6C)cc(C(F)(F)F)c5)n(C)c4c3Cl)c12

>  <pKd>
> 8.00

$$$$
>  <Molecule>
C[C@@H](O)Cn1nc(Nc2nc3ncc(Oc4cnn5ccncc45)c(Cl)c3n2C)cc1C(C)(C)C (single isomer, unassigned)

>  <pKd>
> 8.00

$$$$
>  <Molecule>
Cn1c(Nc2cc(CN3CCCC3)cc(C(F)(F)F)c2)nc2ncc(Oc3cnn4ccncc34)c(Cl)c21

>  <pKd>
> 8.00

$$$$

---

# Subject of test: JAK2 (JH1domain-catalytic, Y1007F,Y1008F) kinase (Homo sapiens, UniProt O60674, Y1007F/Y1008F)
# Construct: JAK2 (JH1domain-catalytic, Y1007F,Y1008F) kinase was expressed as N-terminal fusion
# Assay comment: JAK2 JH1 Domain Binding Assay
# Condition: qPCR readout
pKd: −log10 of the molar value.

>  <Molecule>
Cn1c(Nc2cc(C3CC3)nn([C@@H]3CCOC3)c2=O)nc2ncc(Oc3cnn4ccccc34)c(Cl)c21 [Example I-142]

>  <pKd>
> 8.00

$$$$
>  <Molecule>
CNc1nccn2ncc(Oc3cnc4nc(Nc5cc(CN6CCC6)cc(C(F)(F)F)c5)n(C)c4c3Cl)c12 [Example I-263]

>  <pKd>
> 8.00

$$$$
>  <Molecule>
Cn1c(Nc2cc(C(F)(F)F)cn(CCO)c2=O)nc2ncc(Oc3cnn4ccnc(N5CCOCC5)c34)c(Cl)c21 [Example I-140]

>  <pKd>
7.30 to 8.00

$$$$
>  <Molecule>
Cn1c(Nc2ccc(CN3CCC(F)(F)CC3)c(C(F)(F)F)c2)nc2ncc(Oc3cnn4ccncc34)c(Cl)c21 [Example I-173]

>  <pKd>
7.30 to 8.00

$$$$
>  <Molecule>
Cn1c(Nc2cc(C(F)(F)F)n(C3CC4(CCOCC4)C3)n2)nc2ncc(Oc3cnc4[nH]ncc4c3)c(C#N)c21 [Example I-400]

>  <pKd>
> 8.00

$$$$
>  <Molecule>
COc1c(Oc2cnn3ccccc23)cnc2nc(Nc3cc(C4CC4)cn([C@H]4CC[C@H]4O)c3=O)n(C)c12 (single isomer, unassigned) [Example I-131-b]

>  <pKd>
7.30 to 8.00

$$$$

---

# Subject of test: JAK2 (JH1domain-catalytic, Y1007F,Y1008F) kinase (Homo sapiens, UniProt O60674, Y1007F/Y1008F)
# Construct: JAK2 (JH1domain-catalytic, Y1007F,Y1008F) kinase was expressed as N-terminal fusion; made in house; host or cells: transiently transfected HEK293 cells
# Assay comment: JAK2 JH1 Domain Binding Assay
# Condition: qPCR readout
Below, each entry is listed with its recorded Kd.
Endpoint label: Kd

>  <Compound>
Cn1c(=O)c(Nc2nc3ncc(Oc4cnn5ccncc45)c(Cl)c3n2C)cn(C2CC2)c1=O [Example I-165]

>  <Endpoint label>
Kd

>  <Reported value>
1000 to 5000 nM

$$$$
>  <Compound>
CN1CC[C@@H](n2nc(Nc3nc4ncc(Oc5cnc6sccc6c5)c(Cl)c4n3C)cc2C(C)(C)C)C1 [Example I-20]

>  <Endpoint label>
Kd

>  <Reported value>
50 to 1000 nM

$$$$
>  <Compound>
Cn1c(Nc2cc3n(n2)CCCC3(F)F)nc2ncc(Oc3cnn4ccncc34)c(C#N)c21 [Example I-362]

>  <Endpoint label>
Kd

>  <Reported value>
10 to 50 nM

$$$$
>  <Compound>
Cc1nc(Nc2nc3ncc(Oc4cnn5ccncc45)c(Cl)c3n2C)nc(C)c1N1CCC1 [Example I-268]

>  <Endpoint label>
Kd

>  <Reported value>
50 to 1000 nM

$$$$
>  <Compound>
Cn1c(Nc2cc(C(C)(C)C)n([C@H]3CCOC3)n2)nc2ncc(Oc3cnn4ccncc34)c(Cl)c21 [Example I-22]

>  <Endpoint label>
Kd

>  <Reported value>
< 10 nM

$$$$
>  <Compound>
CN1CC[C@@H](Oc2cc(Nc3nc4ncc(Oc5cnn6ccncc56)c(Cl)c4n3C)cc(C(F)(F)F)c2)C1 [Example I-209]

>  <Endpoint label>
Kd

>  <Reported value>
10 to 50 nM

$$$$
>  <Compound>
COc1c(Oc2cnn3ccccc23)cnc2nc(Nc3cc(C4CC4)cn([C@H]4CC[C@@H]4O)c3=O)n(C)c12 (single isomer, unassigned) [Example I-122-b]

>  <Endpoint label>
Kd

>  <Reported value>
< 10 nM

$$$$
>  <Compound>
Cn1c(Nc2cc(C(C)(C)C)n([C@@H]3CCOC34CC4)n2)nc2ncc(Oc3cnn4ccncc34)c(Cl)c21 (single isomer, unassigned) [Example I-41-a]

>  <Endpoint label>
Kd

>  <Reported value>
< 10 nM

$$$$
>  <Compound>
Cc1c[nH]c2ncc(Oc3cnc4nc(Nc5cc(C(F)(F)F)cn(C)c5=O)n(C)c4c3C#N)cc12 [Example I-329]

>  <Endpoint label>
Kd

>  <Reported value>
< 10 nM

$$$$
>  <Compound>
CN1CC[C@@H](n2nc(Nc3nc4ncc(Oc5cnc6scnc6c5)c(Cl)c4n3C)cc2C(C)(C)C)C1 [Example I-27]

>  <Endpoint label>
Kd

>  <Reported value>
10 to 50 nM

$$$$
>  <Compound>
Cn1c(Nc2cc(C(C)(C)C)n(CC#N)n2)nc2ncc(Oc3cnn4ccncc34)c(Cl)c21 [Example I-54]

>  <Endpoint label>
Kd

>  <Reported value>
10 to 50 nM

$$$$
>  <Compound>
Cn1c(Nc2cc(CN3CC[C@H](O)C3)cc(C(F)(F)F)c2)nc2ncc(Oc3cnn4ccncc34)c(Cl)c21 [Example I-205]

>  <Endpoint label>
Kd

>  <Reported value>
< 10 nM

$$$$
>  <Compound>
Cn1c(Nc2cc(C(C)(C)C)n(C3CC4(COC4)C3)n2)nc2ncc(Oc3cnc4ccnn4c3)c(Cl)c21 [Example I-42]

>  <Endpoint label>
Kd

>  <Reported value>
10 to 50 nM

$$$$
>  <Compound>
COc1cn2ncc(Oc3cnc4nc(Nc5cc(C(F)(F)F)cn(C)c5=O)n(C)c4c3C#N)c2cn1 [Example I-364]

>  <Endpoint label>
Kd

>  <Reported value>
10 to 50 nM

$$$$
>  <Compound>
CNc1nccn2ncc(Oc3cnc4nc(Nc5cc(C6CCCN6C)cc(C(F)(F)F)c5)n(C)c4c3Cl)c12 (single isomer, unassigned) [Example I-269-b]

>  <Endpoint label>
Kd

>  <Reported value>
10 to 50 nM

$$$$
>  <Compound>
CNc1nccn2ncc(Oc3cnc4nc(Nc5cc(CN6CC(O)C6)cc(C(F)(F)F)c5)n(C)c4c3Cl)c12 [Example I-264]

>  <Endpoint label>
Kd

>  <Reported value>
10 to 50 nM

$$$$
>  <Compound>
Cn1c(Nc2cc(C(C)(C)C)n([C@H]3CCOC3)n2)nc2ncc(Oc3cnc4[nH]cc(C#N)c4c3)cc21 [Example I-10]

>  <Endpoint label>
Kd

>  <Reported value>
1000 to 5000 nM

$$$$
>  <Compound>
Cn1c(Nc2cc(C(F)(F)F)cn([C@@H]3CCCOC3)c2=O)nc2ncc(Oc3cnn4ccncc34)c(Cl)c21 (single isomer, unassigned) [Example I-107-a]

>  <Endpoint label>
Kd

>  <Reported value>
< 10 nM

$$$$
>  <Compound>
COc1c(Oc2cnn3ccccc23)cnc2nc(Nc3cc(C4CC4)cn([C@H]4CCCOC4)c3=O)n(C)c12 (single isomer, unassigned) [Example I-101-a]

>  <Endpoint label>
Kd

>  <Reported value>
< 10 nM

$$$$
>  <Compound>
Cn1cc(C(F)(F)F)cc(Nc2nc3ncc(Oc4cnc5[nH]c(C6CC6)cc5c4)c(C#N)c3n2C)c1=O [Example I-296]

>  <Endpoint label>
Kd

>  <Reported value>
10 to 50 nM

$$$$
>  <Compound>
COc1cn2ncc(Oc3cnc4nc(Nc5cc(C(F)(F)F)cn(C)c5=O)n(C)c4c3Cl)c2cn1 [Example I-363]

>  <Endpoint label>
Kd

>  <Reported value>
10 to 50 nM

$$$$
>  <Compound>
COc1ccc2c(Oc3cnc4nc(Nc5cc6n(n5)CCCC6(F)F)n(C)c4c3C#N)cnn2c1 [Example I-374]

>  <Endpoint label>
Kd

>  <Reported value>
< 10 nM

$$$$
>  <Compound>
COc1c(Oc2cnn3ccncc23)cnc2nc(Nc3cc(C(C)(C)C)n([C@H]4CCN(CCF)C4)n3)n(C)c12 [Example I-50]

>  <Endpoint label>
Kd

>  <Reported value>
10 to 50 nM

$$$$
>  <Compound>
Cn1c(Nc2cc(C(C)(C)C)n(C3COCC3O)n2)nc2ncc(Oc3cnn4ccncc34)c(Cl)c21 (single isomer, unassigned) [Example I-47]

>  <Endpoint label>
Kd

>  <Reported value>
< 10 nM

$$$$
>  <Compound>
Cc1nc(Nc2nc3ncc(Oc4cnn5ccncc45)c(Cl)c3n2C)nc(C)c1N1CCCC1 [Example I-287]

>  <Endpoint label>
Kd

>  <Reported value>
10 to 50 nM

$$$$
>  <Compound>
Cn1c(Nc2ccc(CN3CCN(CC(F)F)CC3)c(C(F)(F)F)c2)nc2ncc(Oc3cnn4ccncc34)c(Cl)c21 [Example I-208]

>  <Endpoint label>
Kd

>  <Reported value>
50 to 1000 nM

$$$$
>  <Compound>
Cn1cc(C(F)(F)F)cc(Nc2nc3ncc(Oc4cnn5ccnc(N[C@@H]6CCOC6)c45)c(Cl)c3n2C)c1=O [Example I-402]

>  <Endpoint label>
Kd

>  <Reported value>
< 10 nM

$$$$
